Data origin, for the record: patent US12624026B2

target: SARM1 SAM-TIR (Homo sapiens, UniProt Q6SZW1); construct: a fragment of the SARM1 molecule encompassing the SAM and TIR domains; made in house; host or cells: NRK1-HEK293T cells, transiently transfected; the cleared, unpurified lysate was used as the enzyme; assay: biochemical; settings: SAM-TIR lysate 5 μg/mL, 2 h pre-incubation, 5 μM NAD+, RapidFire MS of NAD+ and ADPR; read-out: SARM1 IC50;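 further: inhibition of SARM1 SAM-TIR NADase activity, i.e. NAD+ cleavage, using lysate of NRK1-HEK293T cells overexpressing the SAM-TIR fragment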
Sequence (Q6SZW1 409-724 limits assumed): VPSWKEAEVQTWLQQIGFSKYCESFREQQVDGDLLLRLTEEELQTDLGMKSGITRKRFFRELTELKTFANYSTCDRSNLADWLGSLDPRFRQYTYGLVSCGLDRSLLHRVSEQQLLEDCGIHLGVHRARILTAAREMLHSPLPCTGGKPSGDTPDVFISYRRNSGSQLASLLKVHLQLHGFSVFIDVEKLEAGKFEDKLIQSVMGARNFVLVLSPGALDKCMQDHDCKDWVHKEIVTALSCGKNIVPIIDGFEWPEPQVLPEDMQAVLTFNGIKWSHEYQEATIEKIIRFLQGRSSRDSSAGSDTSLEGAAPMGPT
pIC50: −log10 of the molar value.
attribute-measured: pIC50

Reference set, count: 2
compound	pIC50
CC(C)(O)Cn1sc(Nc2c(F)cccc2Cl)c(C#N)c1=O [Example 67]	> 6.00
COCCN(C)C(=O)c1c(Nc2ccccc2C(F)(F)F)s[nH]c1=O [Example 116]	< 5.30

# ---- query compound ----
Could you share which pIC50 value was measured for COc1ccc2nc(C)ccc2c1Nc1sn(C)c(=O)c1C#N [Example 82] ?
> 6.00
